Substrate: C[C@H](NC(=O)CCC(=O)O)C(=O)N[C@@H](C)C(=O)N1CCC[C@H]1C(=O)N[C@@H](Cc1ccccc1)C(=O)Nc1ccc([N+](=O)[O-])cc1
Assay: Kinetic parameters from progress curves, p-nitroanilide substrates
Assay type: biochemical, B. amyloliquefaciens
Details: other: 25° C., 0.1M tris buffer, pH 8.6
Recorded kcat for the following proteins

In one line, give reported kcat of the entry B. amyloliquefaciens subtilisin variant asn + 166 (glycine+166 substituted) (Bacillus amyloliquefaciens; G273N) (protein, codons for the mature subtilisin corresponding to that secreted by the B. amyloliquefaciens; made in house; host or cells: Bacillus subtilis BG2036 (protease deficient)) AQSVPYGVSQIKAPALHSQGYTGSNVKVAVIDSGIDSSHPDLKVAGGASMVPSETNPFQDNNSHGTHVAGTVAALNNSIGVLGVAPSASLYAVKVLGADGSGQYSWIINGIEWAIANNMDVINMSLGGPSGSAALKAAVDKAVASGVVVVAAAGNEGTSGSSSTVNYPGKYPSVIAVGAVDSSNQRASFSSVGPELDVMAPGVSIQSTLPGNKYGAYNGTSMASPHVAGAAALILSKHPNWTNTQVRSSLENTTTKLGDSFYYGKGLINVQAAAQ .
26 s⁻¹

Okay, next one:
In one line, give reported kcat of the entry B. amyloliquefaciens subtilisin variant hys + 166 (glycine+166 substituted) (Bacillus amyloliquefaciens; G273H) (protein, codons for the mature subtilisin corresponding to that secreted by the B. amyloliquefaciens; made in house; host or cells: Bacillus subtilis BG2036 (protease deficient)) AQSVPYGVSQIKAPALHSQGYTGSNVKVAVIDSGIDSSHPDLKVAGGASMVPSETNPFQDNNSHGTHVAGTVAALNNSIGVLGVAPSASLYAVKVLGADGSGQYSWIINGIEWAIANNMDVINMSLGGPSGSAALKAAVDKAVASGVVVVAAAGNEGTSGSSSTVHYPGKYPSVIAVGAVDSSNQRASFSSVGPELDVMAPGVSIQSTLPGNKYGAYNGTSMASPHVAGAAALILSKHPNWTNTQVRSSLENTTTKLGDSFYYGKGLINVQAAAQ .
15 s⁻¹
